Origin of the recorded values: paper PMC3493456

Target: DNA polymerase beta WT (242Pro) (Homo sapiens, UniProt P06746 1-335)
Experiment: EMSA; EMSA as described previously (ref 34); buffer, salt, pH and temperature not given in the material
measurement_kind: pKd
// pKd here means minus log10 of the molar concentration (mol/L)

Task: # get_value(readout='pKd', item= 1-bp gapped DNA (dsDNA, 5' phosphate on downstream oligo (S8)) DNA 1: GCCTCGCAGCCGTCCAACCAAC DNA 2: CAACCTCGATCCAATGCCGTCC DNA 3: GGACGGCATTGGATCGAGGTTGAGTTGGTTGGACGGCTGCGAGGC )
Result: 8.30
